Cited source: paper PMC7723751

Target: Human sEH (Homo sapiens)
Sequence (P34913 whole entry): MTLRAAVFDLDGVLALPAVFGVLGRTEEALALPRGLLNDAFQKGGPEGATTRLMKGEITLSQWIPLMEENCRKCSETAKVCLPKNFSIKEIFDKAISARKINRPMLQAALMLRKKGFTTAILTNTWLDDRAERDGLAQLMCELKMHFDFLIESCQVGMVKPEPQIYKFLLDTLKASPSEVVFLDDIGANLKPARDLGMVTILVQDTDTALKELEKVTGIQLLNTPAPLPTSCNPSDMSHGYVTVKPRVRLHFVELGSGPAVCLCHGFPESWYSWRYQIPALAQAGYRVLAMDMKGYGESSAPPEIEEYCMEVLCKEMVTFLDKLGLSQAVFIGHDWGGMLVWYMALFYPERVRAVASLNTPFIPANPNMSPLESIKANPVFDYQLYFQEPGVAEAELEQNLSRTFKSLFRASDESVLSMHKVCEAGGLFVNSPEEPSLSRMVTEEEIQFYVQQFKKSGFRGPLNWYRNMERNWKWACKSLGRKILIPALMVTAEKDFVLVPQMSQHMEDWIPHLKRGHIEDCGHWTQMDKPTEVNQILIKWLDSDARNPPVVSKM
Assay: Human sEH inhibition assay
Format: biochemical
Settings: sEH IC50, human sEH 1 nM, CMNPC 5 μM, pH 7.0, 30 °C
pIC50: −log10 of the molar value.
Listing of entries alongside the reported pIC50.

compound	pIC50
Cc1cc(C)c(S(=O)(=O)N2CCC(C(=O)Nc3ccc(-c4nc5ccccc5s4)cc3)CC2)c(C)c1 [Compound 4-28]	6.10
O=C(Nc1ccc(-c2nc3ccccc3s2)cc1)C1CCN(S(=O)(=O)c2c(F)cc(F)cc2F)CC1 [Compound 4-26]	5.18
O=C(Nc1ccc(-c2nc3ccccc3s2)cc1)C1CCN(S(=O)(=O)c2ccccc2Br)CC1 [Compound 4-6]	7.62
O=C(Nc1ccc(-c2nc3ccccc3s2)cc1)C1CCN(S(=O)(=O)c2cccc(Cl)c2)CC1 [Compound 4-10]	5.62
O=C(Nc1ccc(-c2nc3ccccc3s2)cc1)C1CCN(S(=O)(=O)c2cccc(F)c2)CC1 [Compound 4-9]	5.77
O=C(Nc1ccc(-c2nc3ccccc3s2)cc1)C1CCN(S(=O)(=O)c2ccc(Br)cc2)CC1 [Compound 4-16]	6.24
O=C(Nc1ccc(-c2nc3ccccc3s2)cc1)C1CCN(S(=O)(=O)c2ccc(F)cc2)CC1 [Compound 4-14]	5.89
Cc1cc(C)cc(S(=O)(=O)N2CCC(C(=O)Nc3ccc(-c4nc5ccccc5s4)cc3)CC2)c1 [Compound 4-25]	5.44
COc1cccc(S(=O)(=O)N2CCC(C(=O)Nc3ccc(-c4nc5ccccc5s4)cc3)CC2)c1 [Compound 4-13]	6.21
O=C(Nc1ccc(-c2nc3ccccc3s2)cc1)C1CCN(S(=O)(=O)c2c(F)c(F)c(F)c(F)c2F)CC1 [Compound 4-30]	5.57
Cc1ccc(S(=O)(=O)N2CCC(C(=O)Nc3ccc(-c4nc5ccccc5s4)cc3)CC2)cc1 [Compound 4-17]	6.43
CC(C)c1cc(C(C)C)c(S(=O)(=O)N2CCC(C(=O)Nc3ccc(-c4nc5ccccc5s4)cc3)CC2)c(C(C)C)c1 [Compound 4-29]	6.08
Cc1ccc(S(=O)(=O)N2CCC(C(=O)Nc3ccc(-c4nc5ccccc5s4)cc3)CC2)c(C)c1 [Compound 4-22]	7.53
O=C(Nc1ccc(-c2nc3ccccc3s2)cc1)C1CCN(S(=O)(=O)c2ccccc2)CC1 [Compound 4-3]	5.96
O=C(Nc1ccc(-c2nc3ccccc3s2)cc1)C1CCN(S(=O)(=O)c2cc(Br)c(Cl)s2)CC1 [Compound 4-2]	5.23
O=C(Nc1ccc(-c2nc3ccccc3s2)cc1)C1CCN(S(=O)(=O)c2ccc(Cl)cc2)CC1 [Compound 4-15]	6.15
O=C(Nc1ccc(-c2nc3ccccc3s2)cc1)C1CCN(S(=O)(=O)c2cccs2)CC1 [Compound 4-1]	6.38
Cc1ccccc1S(=O)(=O)N1CCC(C(=O)Nc2ccc(-c3nc4ccccc4s3)cc2)CC1 [Compound 4-7]	7.46
COc1ccc(S(=O)(=O)N2CCC(C(=O)Nc3ccc(-c4nc5ccccc5s4)cc3)CC2)c(OC)c1 [Compound 4-23]	6.74
O=C(Nc1ccc(-c2nc3ccccc3s2)cc1)C1CCN(S(=O)(=O)c2ccccc2F)CC1 [Compound 4-4]	6.82
Cc1cccc(S(=O)(=O)N2CCC(C(=O)Nc3ccc(-c4nc5ccccc5s4)cc3)CC2)c1 [Compound 4-12]	6.03
O=C(Nc1ccc(-c2nc3ccccc3s2)cc1)C1CCN(S(=O)(=O)c2ccc(Br)cc2Br)CC1 [Compound 4-21]	7.44
O=C(Nc1ccc(-c2nc3ccccc3s2)cc1)C1CCN(S(=O)(=O)c2cc(F)cc(F)c2)CC1 [Compound 4-24]	5.96
O=C(Nc1ccc(-c2nc3ccccc3s2)cc1)C1CCN(S(=O)(=O)c2c(Cl)cc(Cl)cc2Cl)CC1 [Compound 4-27]	5.89
O=C(Nc1ccc(-c2nc3ccccc3s2)cc1)C1CCN(S(=O)(=O)c2cccc(Br)c2)CC1 [Compound 4-11]	5.96
O=C(Nc1ccc(-c2nc3ccccc3s2)cc1)C1CCN(S(=O)(=O)c2ccc(F)cc2F)CC1 [Compound 4-19]	6.71
COc1ccccc1S(=O)(=O)N1CCC(C(=O)Nc2ccc(-c3nc4ccccc4s3)cc2)CC1 [Compound 4-8]	7.59
COc1ccc(S(=O)(=O)N2CCC(C(=O)Nc3ccc(-c4nc5ccccc5s4)cc3)CC2)cc1 [Compound 4-18]	7.08
